# assay comment: LNP particle size and polydispersity by dynamic light scattering
# Type: physicochemical
# recorded conditions: LNP containing ionizable lipid and a 4.2 kDa acidic peptide (net charge -3)
measurement name: Particle Diameter (nm)
Numbers only, in nm.

Please review the following examples before continuing.
{"compound": "CCCCC/C=C\\C/C=C\\CCCCCCCC(=O)O[C@@H](CCCCCCCC)[C@@H](CCCCCCCC(=O)OCCN(C)C)OC(=O)CCCCCCC/C=C\\C/C=C\\CCCCC (racemic)", "Particle Diameter (nm)": 48}
{"compound": "CCCCC/C=C\\C/C=C\\CCCCCCCC(=O)O[C@@H](CCCCCCCC)[C@@H](CCCCCCCC(=O)OCCCN(CC)CC)OC(=O)CCCCCCC/C=C\\C/C=C\\CCCCC (racemic)", "Particle Diameter (nm)": 62}
{"compound": "CCCCCCCCC(CCCCCC)C(=O)O[C@@H](CCCCCCCC)[C@@H](CCCCCCCC(=O)OCCCN(CC)CC)OC(=O)C(CCCCCC)CCCCCCCC (mixture of isomers)", "Particle Diameter (nm)": 52}
{"compound": "CCCCC/C=C\\C/C=C\\CCCCCCCC(=O)O[C@@H](CCCCCCCC)[C@@H](CCCCCCCC(=O)OCCCN(C)C)OC(=O)CCCCCCC/C=C\\C/C=C\\CCCCC (racemic)", "Particle Diameter (nm)": 76}

Next, consider the following compound.
I am curious: what Particle Diameter value has been reported for CCCCC/C=C\C/C=C\CCCCCCCC(=O)O[C@@H](CCCCCCCC)[C@@H](CCCCCCCC(=O)OCCN(CC)CC)OC(=O)CCCCCCC/C=C\C/C=C\CCCCC (racemic) ?
40

---

# assay comment: LNP particle size and polydispersity by dynamic light scattering
# Assay type: physicochemical
# recorded conditions: LNP containing ionizable lipid and Luciferase mRNA
Consider the following compounds; for each one, report its Polydispersity index (PDI).
Give bare numbers.

Consider the worked cases shown below.
{"compound": "CCCCC/C=C\\C/C=C\\CCCCCCCC(=O)O[C@@H](CCCCCCCC)[C@@H](CCCCCCCC(=O)OCCN(C)C)OC(=O)CCCCCCC/C=C\\C/C=C\\CCCCC (racemic)", "Polydispersity index (PDI)": 0.064}
{"compound": "CCCCC/C=C\\C/C=C\\CCCCCCCC(=O)O[C@@H](CCCCCCCC)[C@@H](CCCCCCCC(=O)OCCCN(CC)CC)OC(=O)CCCCCCC/C=C\\C/C=C\\CCCCC (racemic)", "Polydispersity index (PDI)": 0.053}
{"compound": "CCCCC/C=C\\C/C=C\\CCCCCCCC(=O)O[C@@H](CCCCCCCC)[C@@H](CCCCCCCC(=O)OCCN(CC)CC)OC(=O)CCCCCCC/C=C\\C/C=C\\CCCCC (racemic)", "Polydispersity index (PDI)": 0.090}

API: the following record is the query input.
Which Polydispersity index (PDI) reading was recorded for the compound CCCCC/C=C\C/C=C\CCCCCCCC(=O)O[C@@H](CCCCCCCC)[C@@H](CCCCCCCC(=O)OCCCN(C)C)OC(=O)CCCCCCC/C=C\C/C=C\CCCCC (racemic) ?
0.050

---

# assay comment: RNA or antisense oligonucleotide encapsulation efficiency (Quant-iT Ribogreen RNA / Oligreen ssDNA assays)
# Type: physicochemical
# recorded conditions: LNP containing ionizable lipid and siRNA
measurement name: Encapsulation Efficiency (%)
Numbers only, in %.

# map each compound to its Encapsulation Efficiency
1. CCCCCCCCC(CCCCCC)C(=O)O[C@@H](CCCCCCCC)[C@@H](CCCCCCCC(=O)OCCCN(CC)CC)OC(=O)C(CCCCCC)CCCCCCCC (mixture of isomers) [INT-A007]
2. CCCCC/C=C\C/C=C\CCCCCCCC(=O)O[C@@H](CCCCCCCC)[C@@H](CCCCCCCC(=O)OCCN(C)C)OC(=O)CCCCCCC/C=C\C/C=C\CCCCC (racemic) [INT-A001]
3. CCCCC/C=C\C/C=C\CCCCCCCC(=O)O[C@@H](CCCCCCCC)[C@@H](CCCCCCCC(=O)OCCCN(C)C)OC(=O)CCCCCCC/C=C\C/C=C\CCCCC (racemic) [INT-A003]
4. CCCCC/C=C\C/C=C\CCCCCCCC(=O)O[C@@H](CCCCCCCC)[C@@H](CCCCCCCC(=O)OCCN(CC)CC)OC(=O)CCCCCCC/C=C\C/C=C\CCCCC (racemic) [INT-A004]

1: 84; 2: 89; 3: 92; 4: 61

Fill blank: measured Encapsulation Efficiency of the compound CCCCC/C=C\C/C=C\CCCCCCCC(=O)O[C@@H](CCCCCCCC)[C@@H](CCCCCCCC(=O)OCCCN(CC)CC)OC(=O)CCCCCCC/C=C\C/C=C\CCCCC (racemic) [INT-A002] is ____.
97

---

# assay comment: Peptide incorporation into LNP (Peptide:Lipid ratio; BCA or CBQCA protein quantification)
# Format: physicochemical
# recorded conditions: LNP containing ionizable lipid and a 4.2 kDa acidic peptide (net charge -3)
measurement name: Peptide:Lipid (wt/wt)
Numbers only, in wt/wt.

{"compound": "CCCCC/C=C\\C/C=C\\CCCCCCCC(=O)O[C@@H](CCCCCCCC)[C@@H](CCCCCCCC(=O)OCCCN(CC)CC)OC(=O)CCCCCCC/C=C\\C/C=C\\CCCCC (racemic)", "quantitative result": 0.157}
{"compound": "CCCCC/C=C\\C/C=C\\CCCCCCCC(=O)O[C@@H](CCCCCCCC)[C@@H](CCCCCCCC(=O)OCCN(CC)CC)OC(=O)CCCCCCC/C=C\\C/C=C\\CCCCC (racemic)", "quantitative result": 0.158}
{"compound": "CCCCCCCCC(CCCCCC)C(=O)O[C@@H](CCCCCCCC)[C@@H](CCCCCCCC(=O)OCCCN(CC)CC)OC(=O)C(CCCCCC)CCCCCCCC (mixture of isomers)", "quantitative result": 0.162}
{"compound": "CCCCC/C=C\\C/C=C\\CCCCCCCC(=O)O[C@@H](CCCCCCCC)[C@@H](CCCCCCCC(=O)OCCCN(C)C)OC(=O)CCCCCCC/C=C\\C/C=C\\CCCCC (racemic)", "quantitative result": 0.160}

Would you kindly share the measured Peptide:Lipid for CCCCC/C=C\C/C=C\CCCCCCCC(=O)O[C@@H](CCCCCCCC)[C@@H](CCCCCCCC(=O)OCCN(C)C)OC(=O)CCCCCCC/C=C\C/C=C\CCCCC (racemic) ?
0.161

---

# assay comment: RNA or antisense oligonucleotide encapsulation efficiency (Quant-iT Ribogreen RNA / Oligreen ssDNA assays)
# Type: physicochemical
# recorded conditions: LNP containing ionizable lipid and Luciferase mRNA
I'd be grateful if you could share measured Encapsulation Efficiency for these entries.
One number for each entry, in %.

Below: 3 compounds and their reported Encapsulation Efficiency.
{"compound": "CCCCC/C=C\\C/C=C\\CCCCCCCC(=O)O[C@@H](CCCCCCCC)[C@@H](CCCCCCCC(=O)OCCN(CC)CC)OC(=O)CCCCCCC/C=C\\C/C=C\\CCCCC (racemic)", "Encapsulation Efficiency (%)": 96}
{"compound": "CCCCC/C=C\\C/C=C\\CCCCCCCC(=O)O[C@@H](CCCCCCCC)[C@@H](CCCCCCCC(=O)OCCN(C)C)OC(=O)CCCCCCC/C=C\\C/C=C\\CCCCC (racemic)", "Encapsulation Efficiency (%)": 96}
{"compound": "CCCCC/C=C\\C/C=C\\CCCCCCCC(=O)O[C@@H](CCCCCCCC)[C@@H](CCCCCCCC(=O)OCCCN(CC)CC)OC(=O)CCCCCCC/C=C\\C/C=C\\CCCCC (racemic)", "Encapsulation Efficiency (%)": 99}

Let us move to another entry and its Encapsulation Efficiency.
Which measured Encapsulation Efficiency value corresponds to CCCCC/C=C\C/C=C\CCCCCCCC(=O)O[C@@H](CCCCCCCC)[C@@H](CCCCCCCC(=O)OCCCN(C)C)OC(=O)CCCCCCC/C=C\C/C=C\CCCCC (racemic) ?
99

---

# assay comment: LNP particle size and polydispersity by dynamic light scattering
# Assay type: physicochemical
# recorded conditions: LNP containing ionizable lipid and antisense oligonucleotide
measurement name: Particle Diameter
Phrase the answer as number then unit, nothing more needed.

Solved entries (count: 4):
{"compound": "CCCCC/C=C\\C/C=C\\CCCCCCCC(=O)O[C@@H](CCCCCCCC)[C@@H](CCCCCCCC(=O)OCCCN(C)C)OC(=O)CCCCCCC/C=C\\C/C=C\\CCCCC (racemic) [INT-A003]", "Particle Diameter": "54 nm"}
{"compound": "CCCCC/C=C\\C/C=C\\CCCCCCCC(=O)O[C@@H](CCCCCCCC)[C@@H](CCCCCCCC(=O)OCCN(C)C)OC(=O)CCCCCCC/C=C\\C/C=C\\CCCCC (racemic) [INT-A001]", "Particle Diameter": "44 nm"}
{"compound": "CCCCC/C=C\\C/C=C\\CCCCCCCC(=O)O[C@@H](CCCCCCCC)[C@@H](CCCCCCCC(=O)OCCCN(CC)CC)OC(=O)CCCCCCC/C=C\\C/C=C\\CCCCC (racemic) [INT-A002]", "Particle Diameter": "49 nm"}
{"compound": "CCCCCCCCC(CCCCCC)C(=O)O[C@@H](CCCCCCCC)[C@@H](CCCCCCCC(=O)OCCCN(CC)CC)OC(=O)C(CCCCCC)CCCCCCCC (mixture of isomers) [INT-A007]", "Particle Diameter": "55 nm"}

// switching to the query compound
# input compound: CCCCC/C=C\C/C=C\CCCCCCCC(=O)O[C@@H](CCCCCCCC)[C@@H](CCCCCCCC(=O)OCCN(CC)CC)OC(=O)CCCCCCC/C=C\C/C=C\CCCCC (racemic) [INT-A004] ; wanted: its Particle Diameter
45 nm
